test system: ACHN; assay: NCI tumour cell line growth inhibition, 48 h
Calls of active or inactive are those of the source. No stated cut-off is given here; in the data, active = GI50 up to about 1.1 µM and inactive = higher.

- molecule: "COC(=O)Cc1ccc2c(cnn2-c2ccccc2)c1OC"
  GI50: "> 10 µM (inactive)"
- molecule: "CC(=O)c1c2c(cc3c1CC1(C3)Cc3cc4c(c(C(C)=O)c3C1)CCC4)CCC2"
  GI50: "> 100 µM (inactive)"
- molecule: "NNC(=O)CCC(=O)Nc1cc(Cl)c(Cl)cc1Cl"
  GI50: "> 100 µM (inactive)"
- molecule: "CC(SC(=O)Nc1ccc(/N=N/c2ccccc2)cc1)C(=O)O (stereo unspecified)"
  GI50: "57.9 µM (inactive)"
- molecule: "CC1C=C(NCC2(CO)CCC2)N=C(N)N1 (stereo unspecified)"
  GI50: "> 100 µM (inactive)"
- molecule: "CCN(CC)C(=C(C(Cl)=C(Cl)Cl)[N+](=O)[O-])N(CC)CC"
  GI50: "72.6 µM (inactive)"
- molecule: "O=C(NC(CO)CO)c1ccc2cc(C(=O)N3CC(CCl)c4ccc([N+](=O)[O-])cc43)[nH]c2c1 (stereo unspecified)"
  GI50: "> 100 µM (inactive)"
- molecule: "CC1(C)C2CC(=O)C1(C)C(O)C2Br (stereo unspecified)"
  GI50: "> 100 µM (inactive)"
- molecule: "CC(=O)Nc1ccc2nc(-c3ccccn3)c(-c3ccccn3)nc2c1"
  GI50: "> 100 µM (inactive)"
- molecule: "COc1ccc(-c2c(C#N)c(NC(=S)NC(=O)c3ccccc3)nc3c2CCCC3)cc1OC"
  GI50: "72.3 µM (inactive)"
- molecule: "C/C=C/C1(C)/C(=N\\O)C(C)(CCC)C(=O)N1O (stereo unspecified)"
  GI50: "> 100 µM (inactive)"
- molecule: "Cc1cc(C)c2c(SCc3ccc(Cl)cc3Cl)nc(N)nc2n1"
  GI50: "57.5 µM (inactive)"
- molecule: "CCOC(=O)Cc1nnc2c(-c3ccccc3)nc3ccccc3n12"
  GI50: "19.8 µM (inactive)"
- molecule: "O=c1cc(-c2ccc(O)c(O)c2)oc2cc(O[C@H]3O[C@H](CO)[C@@H](O)[C@H](O)[C@H]3O)cc(O)c12"
  GI50: "65.5 µM (inactive)"
- molecule: "Cc1nc(Cc2n[nH]c(C)n2)n[nH]1"
  GI50: "> 100 µM (inactive)"
- molecule: "CN(C)Cc1cc(O)c(O)c(CN(C)C)c1"
  GI50: "34.5 µM (inactive)"

====

system: SNB-19; experiment: NCI tumour cell line growth inhibition, 48 h
Active and inactive are the calls of the source. Rule as the data show it: active = GI50 up to about 1.1 µM and inactive = higher.
quantity.measured: GI50

- molecule: "O=C1/C(=C/c2ccccc2[N+](=O)[O-])N=C(c2ccccc2)N1c1nc2ccccc2s1"
  val: "42.6 µM (inactive)"
- molecule: "CC1=C2NCN(C)N=C2C(C#N)(C#N)C1(C#N)C#N"
  val: "36.9 µM (inactive)"
- molecule: "CC(C)/C(Cl)=N\\OC(=O)Nc1ccc(F)c([N+](=O)[O-])c1"
  val: "16.7 µM (inactive)"
- molecule: "C=C1CCC2(C(C)=O)COC1(C)O2 (centres undefined)"
  val: "> 100 µM (inactive)"

====

Documented GI50 across a set of compounds
test system: HCC 2998; experiment: NCI tumour cell line growth inhibition, 48 h
Active and inactive are the calls of the source. Cut-off read from the data, not from the text of the source: active = GI50 up to about 1.1 µM and inactive = higher.
quantity.measured: GI50

- compound: "Cc1ccc([N+](=O)[O-])cc1S(=O)(=O)Nc1ccc(C2=NNC(c3ccccc3)C2)cc1 (centres undefined)"
  target.or.test.system: "HCC 2998"
  val: "18.7 µM (inactive)"
- compound: "O=C1C(c2ccc(Cl)cc2)=[N+]([O-])c2ccccc21"
  target.or.test.system: "HCC 2998"
  val: "> 100 µM (inactive)"
- compound: "COC(=O)C(CCC1(C)OCCO1)C(C)=O (centres undefined)"
  target.or.test.system: "HCC 2998"
  val: "> 100 µM (inactive)"
- compound: "CC1=C([S+]([O-])c2ccc(C)cc2)CCC2(CCCCO2)O1 (centres undefined)"
  target.or.test.system: "HCC 2998"
  val: "> 100 µM (inactive)"

====

system: KM-20L2; assay: NCI tumour cell line growth inhibition, 48 h
The source made the active and inactive calls. No stated cut-off is given here; in the data, active = GI50 up to about 1.1 µM and inactive = higher.
quantity.measured: GI50

- compound: "CC1=C(NC(=O)/C(=N/NC(=S)NN)C2C(=O)CC(C)(C)CC2=O)C(=O)c2ccccc2C1=O"
  quantity.measured: "GI50"
  val: "11.4 µM (inactive)"
- compound: "CN(C)C(CN)CC1=C(CC(CN)N(C)C)CCC1 (stereo not drawn)"
  quantity.measured: "GI50"
  val: "> 100 µM (inactive)"
- compound: "COc1nc(NC2OC(COC(C)=O)C(OC(C)=O)C(OC(C)=O)C2OC(C)=O)c(/N=C(\\C)C(C)=O)c(=O)n1C (stereo not drawn)"
  quantity.measured: "GI50"
  val: "> 100 µM (inactive)"

====

system: DU-145; experiment: NCI tumour cell line growth inhibition, 48 h
Calls of active or inactive are those of the source. No stated cut-off is given here; in the data, active = GI50 up to about 1.1 µM and inactive = higher.
Parameter: GI50. Scope: all listed entries.

- compound: "COc1cc(COC(=O)N2CCCCC2C(=O)O)c([N+](=O)[O-])cc1OC (stereo not drawn)"
  GI50: "> 100 µM (inactive)"
- compound: "CC1=NN(c2cccc(Cl)c2)C2(SCC(=O)N2c2nc3ccccc3s2)/C1=C\\c1ccccc1 (stereo not drawn)"
  GI50: "22 µM (inactive)"
- compound: "COc1ccc(CCN2C(=O)CC34C=CC(CC3C2=O)O4)cc1OC (stereo not drawn)"
  GI50: "> 100 µM (inactive)"
- compound: "COc1c2c(c3c(c1CCC(=O)O)OC(C)(C)C=C3)OC(C)(C)C=C2"
  GI50: "> 100 µM (inactive)"
- compound: "CC1=C(C(=O)Nc2ccc(Cl)c(C(=O)OC(C)C)c2)SCCO1"
  GI50: "> 100 µM (inactive)"
- compound: "Cn1c(=O)[nH]c2sc3c(c2c1=N)CCCC3"
  GI50: "> 75 µM (inactive)"
- compound: "O=c1[nH]ncc2[nH]c3c(c12)CCc1ccccc1-3"
  GI50: "38 µM (inactive)"
- compound: "CN1C(=O)NC(=O)/C(=C\\Nc2ncccn2)C1=O"
  GI50: "> 100 µM (inactive)"
- compound: "C[n+]1ccccc1/C=C/c1ccc2c(c1)OCO2"
  GI50: "> 10 µM (inactive)"
- compound: "NC1=C(N2CCOCC2)C(=O)NC2=N/C(=C\\c3ccccc3O)C(=O)N21"
  GI50: "> 100 µM (inactive)"
- compound: "COc1ccc(-c2nc(Nc3ccccc3)sc2Cc2sc(Nc3ccccc3)nc2-c2ccc(OC)cc2)cc1"
  GI50: "> 100 µM (inactive)"
- compound: "CCCCCCCCCCCCC1N=C(N)N2CCCC2=C1C(=O)OC (stereo not drawn)"
  GI50: "8.07 µM (inactive)"
- compound: "C[N+](C)(C)CCC(=O)N1C/C(=C\\c2ccccc2)C(=O)/C(=C/c2ccccc2)C1"
  GI50: "16.8 µM (inactive)"

====

system: HCT-116; assay: NCI tumour cell line growth inhibition, 48 h
Activity calls are given as the source filed them. Rule as the data show it: active = GI50 up to about 1.1 µM and inactive = higher.
Consider the following compounds and their measured GI50 readings.
quantity.measured: GI50

- compound: "C=C1CCC2(C(C)=O)COC1(C)O2 (stereo not drawn)"
  val: "> 100 µM (inactive)"
- compound: "CC1=C(C(=O)OCCc2ccc([N+](=O)[O-])cc2)C(c2ccccc2C(F)(F)F)C(C(=O)OC(C)C)=C(C)N1 (stereo not drawn)"
  val: "2.92 µM (inactive)"
- compound: "CN(C)C(CN)CC1=C(CC(CN)N(C)C)CCC1 (stereo not drawn)"
  val: "> 100 µM (inactive)"
- compound: "COc1cc(COC(=O)N2CCCCC2C(=O)O)c([N+](=O)[O-])cc1OC (stereo not drawn)"
  val: "> 100 µM (inactive)"
- compound: "CCN(CC)c1ccc(C(=O)c2ccccc2C(=O)O)c(O)c1"
  val: "> 100 µM (inactive)"
- compound: "CN(CCO)c1nc(N)cc(=O)[nH]1"
  val: "> 100 µM (inactive)"
- compound: "CCOC(=O)C1=CC(C)(C(=O)OCC)Nc2c(nc(OC)n(C)c2=O)N1 (stereo not drawn)"
  val: "> 10 µM (inactive)"
- compound: "O=C(Nc1ccc(Cl)c(Cl)c1)C(=O)C(C(=O)c1ccccc1-c1ccccc1)C1OC(=O)c2ccccc21 (stereo not drawn)"
  val: "10.5 µM (inactive)"

====

# GI50 annotations
tested on: HT-29; test: NCI tumour cell line growth inhibition, 48 h
Active and inactive are the calls of the source. No stated cut-off is given here; in the data, active = GI50 up to about 1.1 µM and inactive = higher.

- compound: "COc1ccc(OC)c2c1C1CCC(=O)N1CN2C(C)=O (stereo not drawn)"
  GI50: "> 100 µM (inactive)"
- compound: "COC(=O)[C@]1(NC(=O)c2ccccc2)C[C@H]1C=O"
  GI50: "> 100 µM (inactive)"
- compound: "COc1ccc(N2CCOCC2)cc1"
  GI50: "> 100 µM (inactive)"
- compound: "O=C1[C@@H]2C(c3ccc(Cl)cc3Cl)=NO[C@@H]2C(=O)N1c1ccc(Cc2ccc(N3C(=O)[C@H]4C(c5ccc(Cl)cc5Cl)=NO[C@H]4C3=O)cc2)cc1"
  GI50: "> 100 µM (inactive)"
- compound: "CCCNCCCC(NC(C)=O)C(=O)NCc1ccccc1 (stereo not drawn)"
  GI50: "> 100 µM (inactive)"
- compound: "O=C1c2ccccc2C(=O)c2c(NCC3CO3)cccc21 (stereo not drawn)"
  GI50: "18.2 µM (inactive)"
- compound: "C[N+](C)(C)C(C1=CCCC1=O)c1ccccc1 (stereo not drawn)"
  GI50: "23.5 µM (inactive)"
- compound: "CC(=O)Nc1ccc(-c2nc3ccccc3s2)cc1C"
  GI50: "> 100 µM (inactive)"
- compound: "O=C(Nc1c(O)[nH]c(=S)[nH]c1=O)c1ccccn1"
  GI50: "> 100 µM (inactive)"
- compound: "CC(C)(c1cn(Cc2ccccc2)c2ccccc12)c1cn(Cc2ccccc2)c2ccccc12"
  GI50: "> 100 µM (inactive)"
- compound: "O=c1[nH]c(=O)n(C2CC(O)C(CO)O2)cc1/C=C/Br (stereo not drawn)"
  GI50: "> 100 µM (inactive)"
- compound: "N#CC1CC2(CCN1C(=O)c1ccccc1)OCCO2 (stereo not drawn)"
  GI50: "> 100 µM (inactive)"
- compound: "Oc1cc(-c2ccccc2)nc2cc3c(cc12)OCO3"
  GI50: "7.18 µM (inactive)"
- compound: "Cc1cc2c(c3c1c1ccccc1n3C)C(=O)c1ccccc1C2=O"
  GI50: "> 100 µM (inactive)"
- compound: "Cn1cc(NC(=O)c2cc(NC(=O)CCCCCCCCCC(=O)Nc3cc(C(=O)Nc4cc(C(=O)NCCC(=N)N)n(C)c4)n(C)c3)cn2C)cc1C(=O)NCCC(=N)N"
  GI50: "20.7 µM (inactive)"
- compound: "CCOC(=O)C12C3CCC1C2C(=O)C3 (stereo not drawn)"
  GI50: "> 100 µM (inactive)"
- compound: "O=C(/C=C/c1ccsc1)c1ccsc1"
  GI50: "26.8 µM (inactive)"
- compound: "O=[N+]([O-])c1ccc2nc(O)n[n+]([O-])c2c1"
  GI50: "> 100 µM (inactive)"
- compound: "CCOC(=O)Cc1nnc2c(-c3ccccc3)nc3ccccc3n12"
  GI50: "> 100 µM (inactive)"
- compound: "Cc1cc(C)c2c(SCc3ccc(Cl)cc3Cl)nc(N)nc2n1"
  GI50: "> 100 µM (inactive)"
- compound: "C=C1CCC2(C(C)=O)COC1(C)O2 (stereo not drawn)"
  GI50: "> 100 µM (inactive)"
- compound: "Cc1cc(C(=O)CCCCOc2ccc(C3=NCCO3)cc2)c(C)n1C"
  GI50: "39.1 µM (inactive)"
- compound: "C(=N\\Cc1ccccc1)/c1ccccc1-c1ccccc1/C=N/Cc1ccccc1"
  GI50: "> 10 µM (inactive)"
